Target: Beta-lactamase (Escherichia coli (strain K12)) (UniProt P00811)
Sequence (P00811 whole entry, looked up): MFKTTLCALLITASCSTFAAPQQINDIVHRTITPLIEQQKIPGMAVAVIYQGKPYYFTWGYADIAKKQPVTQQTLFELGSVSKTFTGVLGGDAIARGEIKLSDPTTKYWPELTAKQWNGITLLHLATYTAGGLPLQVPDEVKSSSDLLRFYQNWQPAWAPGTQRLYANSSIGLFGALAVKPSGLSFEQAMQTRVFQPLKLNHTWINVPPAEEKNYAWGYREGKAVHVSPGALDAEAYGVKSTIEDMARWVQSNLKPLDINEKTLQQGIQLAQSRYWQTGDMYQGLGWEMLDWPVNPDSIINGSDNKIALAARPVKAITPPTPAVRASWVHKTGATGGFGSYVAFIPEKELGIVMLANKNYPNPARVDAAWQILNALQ
Experiment: Promiscuous and Specific Inhibitors of AmpC Beta-Lactamase (assay without detergent)
Conditions: AmpC nitrocefin hydrolysis, absorbance 480 nm, no detergent; series mostly up to 28.7 µM
Among all 71,000 compounds or so, about 1,300 (1.8%) were called active. The call rests on the fitted dose curve. This excerpt belongs to a sample that is enriched for actives.
Outcome codes: yes = active, no = inactive

compound=CCOC(=O)c1cnc2sccn2c1=O assay_system="Beta-lactamase (Escherichia coli (strain K12)) (UniProt P00811)" classification=no
compound=CN1CCN(S(=O)(=O)c2ccc3[nH]cc(C(=O)O)c(=O)c3c2)CC1 assay_system="Beta-lactamase (Escherichia coli (strain K12)) (UniProt P00811)" classification=no
compound="CC(=O)Oc1ccc2c(C)c(CC(C)O)c(=O)oc2c1 (configuration not stated)" assay_system="Beta-lactamase (Escherichia coli (strain K12)) (UniProt P00811)" classification=no
compound=CCOC(=O)c1ccc(NC(=O)CS(=O)(=O)c2cn(CC)c3ccccc23)cc1 assay_system="Beta-lactamase (Escherichia coli (strain K12)) (UniProt P00811)" classification=no
compound=Cc1ccc(CNC(=O)CCCNC(=O)c2ccc(Cl)cc2)n1C assay_system="Beta-lactamase (Escherichia coli (strain K12)) (UniProt P00811)" classification=no
compound=O=C(NCCc1ccccn1)c1ccc(COc2ccccc2)o1 assay_system="Beta-lactamase (Escherichia coli (strain K12)) (UniProt P00811)" classification=no
compound="CC1(C)CC(CCC(=O)Nc2ccccc2Cl)C(=O)O1 (configuration not stated)" assay_system="Beta-lactamase (Escherichia coli (strain K12)) (UniProt P00811)" classification=no
compound=CCOC(=O)Cc1csc(NC(=O)C(C)(C)C)n1 assay_system="Beta-lactamase (Escherichia coli (strain K12)) (UniProt P00811)" classification=no
compound=CCN1CCN(Cc2c(O)ccc3c(=O)c(-c4ccc(OC)c(OC)c4)c(C(F)(F)F)oc23)CC1 assay_system="Beta-lactamase (Escherichia coli (strain K12)) (UniProt P00811)" classification=no
compound="COc1cc2c(cc1OC)C(c1ccncc1)CC(=O)N2 (configuration not stated)" assay_system="Beta-lactamase (Escherichia coli (strain K12)) (UniProt P00811)" classification=no
compound="CC(C)c1nnc(NC(=O)C2CCCN2S(=O)(=O)c2ccc(Cl)cc2)s1 (configuration not stated)" assay_system="Beta-lactamase (Escherichia coli (strain K12)) (UniProt P00811)" classification=no
compound=CCOC(=O)Cc1csc(NC(=O)CN(C)S(=O)(=O)c2ccc3c(c2)CCC(=O)N3)n1 assay_system="Beta-lactamase (Escherichia coli (strain K12)) (UniProt P00811)" classification=yes
compound=CCOc1ccc(N(CC(=O)OC)S(=O)(=O)c2c(C)noc2C)cc1 assay_system="Beta-lactamase (Escherichia coli (strain K12)) (UniProt P00811)" classification=no
compound="Cc1ccccc1S(=O)(=O)Cc1ccc(C(=O)NCCN2CCCCC2C)o1 (configuration not stated)" assay_system="Beta-lactamase (Escherichia coli (strain K12)) (UniProt P00811)" classification=no
compound=Nc1c(C(=O)NCc2ccccc2)nnn1Cc1cccc(Cl)c1 assay_system="Beta-lactamase (Escherichia coli (strain K12)) (UniProt P00811)" classification=no
compound=NC(=O)c1ccc(OC[C@H](O)CN2CC=C(c3ccc(F)cc3)CC2)cc1 assay_system="Beta-lactamase (Escherichia coli (strain K12)) (UniProt P00811)" classification=no
compound=Cc1ccc(C(=O)NCC(=O)O)cc1S(=O)(=O)N1CCCCC1 assay_system="Beta-lactamase (Escherichia coli (strain K12)) (UniProt P00811)" classification=no
compound=CCOc1ccc(Cn2nnc(C(=O)NCc3ccccc3)c2N)cc1 assay_system="Beta-lactamase (Escherichia coli (strain K12)) (UniProt P00811)" classification=yes
compound=O=C(CCC(=O)OCC(F)(F)C(F)F)NCc1ccccc1 assay_system="Beta-lactamase (Escherichia coli (strain K12)) (UniProt P00811)" classification=no
compound=CCOC(=O)CSc1nc2c(sc(=S)n2CCc2ccccc2)c(=O)n1Cc1ccco1 assay_system="Beta-lactamase (Escherichia coli (strain K12)) (UniProt P00811)" classification=no
compound=CC(=O)c1c(O)c(C)c(O)c(Cc2c(O)c3c(c(C(=O)/C=C\c4ccccc4)c2O)OC(C)(C)C=C3)c1O assay_system="Beta-lactamase (Escherichia coli (strain K12)) (UniProt P00811)" classification=yes
compound=CC(=O)Nc1cc2ccc(OC(C)=O)cc2oc1=O assay_system="Beta-lactamase (Escherichia coli (strain K12)) (UniProt P00811)" classification=yes
